Reported growth AUC values follow for various compounds
System: Fusobacterium nucleatum subsp. animalis
TEST_SUMMARY: growth AUC relative to DMSO control (median of replicates) (fraction); higher = more growth (less inhibition), active = hit call of the paper
EXPERIMENTAL_SETUP: 20 µM; 24 h

Sample answers from the record:
COMPOUND | growth AUC
CCCSP(=O)(OCC)SCCC | 0.995 (inactive)
OC(Cc1ccccc1Cl)(Cn1cncn1)C1(Cl)CC1 (stereo unspecified) | 0.897 (inactive)
COP(=S)(OC)Oc1ccc(SC)c(C)c1 | 1.08 (inactive)
O=S(=O)(c1ccc(Cl)cc1)c1cc(Cl)c(Cl)cc1Cl | 0.9 (inactive)
COP(=S)(NC(C)C)Oc1ccccc1C(=O)OC(C)C (stereo unspecified) | 1.08 (inactive)
CP(=O)(O)CC(=O)O | 0.945 (inactive)
CC(C)(O)C(Cl)(Cl)Cl.CC(C)(O)C(Cl)(Cl)Cl.O | 1.1 (inactive)
CCCCc1c(C)nc(N(C)C)[nH]c1=O | 1.09 (inactive)

Please indicate growth AUC recorded for CC1=C(C(=O)Nc2ccccc2)S(=O)(=O)CCO1
0.959 (inactive)

Fill in reported growth AUC for this entry: CCOP(=S)(OCC)Oc1ccc([N+](=O)[O-])cc1
1.11 (inactive)

Report growth AUC, nothing else, for this compound: CNC(=O)Oc1cccc2c1OC(C)(C)C2
1.07 (inactive)

* * *

Tested on: Escherichia coli ED1a
TEST_SUMMARY: growth AUC relative to DMSO control (median of replicates) (fraction); higher = more growth (less inhibition), active = hit call of the paper
EXPERIMENTAL_SETUP: 20 µM; 24 h
Listed below: growth AUC values for each entry.
Please give the numeric answer without any surrounding text.

COMPOUND | growth AUC
CCN(CC)C(=O)/C(Cl)=C(/C)OP(=O)(OC)OC | 0.942
COC(C)(C)CCCC(C)C/C=C/C(C)=C/C(=O)OC(C)C (stereo unspecified) | 1.01
CCCCCCCCSC(=O)Oc1cc(Cl)nnc1-c1ccccc1 | 0.976
CN/C(=N\[N+](=O)[O-])NCc1cnc(Cl)s1 | 1.02
O=C(NC(=O)c1c(F)cccc1F)Nc1cc(Cl)c(Oc2ncc(C(F)(F)F)cc2Cl)c(Cl)c1 | 1.02

Retrieve growth AUC measured for O=C(O)C(F)(F)C(F)(F)C(F)(F)C(F)(F)C(F)(F)C(F)(F)C(F)(F)C(F)(F)F and print it.
1.01

Write down growth AUC measured for item c1ccc(-c2ccccc2)cc1
1.03

Provide one value: measured growth AUC of CCCCCCCCn1sccc1=O
0.944

Entry COP(N)(=O)SC (stereo unspecified) needs its growth AUC filled in; supply it.
1.03

Look up growth AUC of ClC1=C(Cl)[C@]2(Cl)C3CC=CC3[C@@]1(Cl)C2(Cl)Cl (stereo partly specified) and report it.
0.99

Return the recorded growth AUC value; entry: CON(C)C(=O)Nc1ccc(Br)c(Cl)c1
0.958

* * *

Test system: Coprococcus comes
TEST_SUMMARY: growth AUC relative to DMSO control (median of replicates) (fraction); higher = more growth (less inhibition), active = hit call of the paper
EXPERIMENTAL_SETUP: 20 µM; 24 h
Please note: YES applies when growth AUC is 1 or greater, and NO applies otherwise.

MOLECULE | GROUP
Nc1ccc(Cl)cc1Cl | YES
CCNC(=O)NC(=O)/C(C#N)=N/OC | YES
N#Cc1c[nH]cc1-c1cccc(Cl)c1Cl | NO

Item O=C(OC1CCCCC1)c1ccccc1C(=O)OC1CCCCC1 with growth AUC of 1 or above?
NO

Item ClCC1C(CCl)C2(Cl)C(Cl)=C(Cl)C1(Cl)C2(Cl)Cl (centres undefined) with growth AUC of 1 or above?
NO

# check: growth AUC of COC(=O)C(C)Oc1ccc(Oc2ccc(Cl)cc2Cl)cc1 (centres undefined) is greater than or equal to 1
NO

Hello, I need to know if CCc1cccc(C)c1N(C(=O)CCl)C(C)COC (centres undefined) has measured growth AUC not below 1. Thanks!
YES

Given the entry OC(Cc1ccccc1Cl)(Cn1cncn1)C1(Cl)CC1 (centres undefined) , answer whether its growth AUC meets or surpasses 1.
NO

Values were extracted from the supplement of paper PMC12669032.
